Target: UniProtKB P22909
Sequence (P22909 1-465): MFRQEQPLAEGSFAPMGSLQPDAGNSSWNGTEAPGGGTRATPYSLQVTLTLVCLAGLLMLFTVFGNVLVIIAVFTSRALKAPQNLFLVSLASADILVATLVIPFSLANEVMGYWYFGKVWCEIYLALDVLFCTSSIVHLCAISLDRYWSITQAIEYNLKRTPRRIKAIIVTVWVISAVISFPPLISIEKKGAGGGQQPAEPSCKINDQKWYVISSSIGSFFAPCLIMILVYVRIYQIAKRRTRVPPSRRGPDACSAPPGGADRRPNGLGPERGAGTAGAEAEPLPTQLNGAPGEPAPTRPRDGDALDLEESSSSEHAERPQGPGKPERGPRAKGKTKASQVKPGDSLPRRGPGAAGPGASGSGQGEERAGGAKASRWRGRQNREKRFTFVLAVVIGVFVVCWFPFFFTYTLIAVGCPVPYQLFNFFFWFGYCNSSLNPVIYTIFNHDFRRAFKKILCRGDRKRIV
measurement_kind: pIC50
Numbers only, as −log10 of the molar value.

Quickly give me recorded pIC50 for Cl.NC(=O)c1cccc(Cc2c[nH]cn2)c1O [A, hydrochloride]
8.05

These measurements were taken from patent US4923865A.
